Target: T1, human neuropeptide Y2 receptor (human, UniProt P49146 1-381)
T1 sequence (looked up): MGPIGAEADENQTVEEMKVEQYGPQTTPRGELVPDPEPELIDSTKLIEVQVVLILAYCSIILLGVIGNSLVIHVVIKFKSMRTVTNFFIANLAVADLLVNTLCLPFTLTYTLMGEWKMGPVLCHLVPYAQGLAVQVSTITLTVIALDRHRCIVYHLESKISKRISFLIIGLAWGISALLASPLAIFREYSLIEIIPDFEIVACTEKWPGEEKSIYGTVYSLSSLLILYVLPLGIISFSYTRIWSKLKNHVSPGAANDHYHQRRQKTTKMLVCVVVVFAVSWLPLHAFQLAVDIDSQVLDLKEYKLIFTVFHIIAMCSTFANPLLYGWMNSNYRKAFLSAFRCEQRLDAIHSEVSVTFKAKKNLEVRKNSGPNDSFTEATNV
Experiment: cell-based or functional assay
*1 amine or outer side, *2 acyl side, *3 side chain or, on linkers, in order; H or OH if unused. Where no end group is shown, it is not given here. Side-chain parts run from the residue outwards. [ ]: non-standard residue; d: D form. The star is where a group is joined. C18 diacid = O=C(O)CCCCCCCCCCCCCCCCC(=O)*; γGlu = O=C(O)[C@H](CCC(=O)[*:2])N[*:1]; εLys = N[C@@H](CCCCN[*:1])C(=O)[*:2]; Aib = CC(C)(N)C(=O)O
This section presents binders with their documented EC50, CreLuc reporter, 100% hP values.
property-name: EC50, CreLuc reporter, 100% hP (nM)

[[record]]
binder = "YXEGTFTSDYSIXLEKQAQXAFVRHLINKXTRQRY (Aib at 2, 13, 20, 30; Lys29 epsilon-amino: C20DA-gGlu-gGlu-gGlu-gGlu-gGlu-AHX; C-terminal amide) [Compound 167]"
property_name = "EC50, CreLuc reporter, 100% hP"
measured = 267

[[record]]
binder = "Y[Aib]EGTFTSDYSI[Aib]LDEQAQ[Aib]AFVRHLINK([εLys-γGlu-γGlu-γGlu-γGlu-γGlu-C18 diacid])[Aib]TRQRY-NH2 [Compound 108]"
property_name = "EC50, CreLuc reporter, 100% hP"
measured = 120

[[record]]
binder = "YXEGTFTSDYSIXLDRQAQXAFVRHLINKXTRQRY (Aib at 2, 13, 20, 30; Lys29 epsilon-amino: C18DA-gGlu-gGlu-gGlu-gGlu-gGlu-gGlu-eLys; C-terminal amide) [Compound 147]"
property_name = "EC50, CreLuc reporter, 100% hP"
measured = 86.3

